Cited source for all entries: ChEMBL document CHEMBL5505967

molecular target: Mushroom tyrosinase (Agaricus bisporus, UniProt O42713+Q00024+C7FF04+C7FF05); experiment: Inhibition of mushroom tyrosinase using L-DOPA as substrate preincubated for 10 mins followed by substrate addition measured after 10 mins by absorbance based spectramax microplate reader assay; type: protein assay
property-name: IC50 (nM)

Example entries and their recorded answers appear below.
molecule: NCC(=O)Nc1cccc2c1C/C(=C\c1ccc(O)cc1O)C2=O
endpoint-unit: nM
IC50: 390
//
molecule: O=C1/C(=C/c2ccc(O)cc2O)Cc2c1cccc2[N+](=O)[O-]
endpoint-unit: nM
IC50: 160
//
molecule: COc1cccc2c1C/C(=C\c1ccc(O)cc1O)C2=O
endpoint-unit: nM
IC50: 160
//
molecule: O=C1/C(=C/c2ccc(O)cc2O)Cc2c(F)cccc21
endpoint-unit: nM
IC50: 150
//
molecule: CC(=O)Nc1cccc2c1C/C(=C\c1ccc(O)cc1O)C2=O
endpoint-unit: nM
IC50: 9
//
molecule: CC(C)[C@@H](N)C(=O)Nc1cccc2c1C/C(=C\c1ccc(O)cc1O)C2=O
endpoint-unit: nM
IC50: 460

1 = C[C@H](N)C(=O)Nc1cccc2c1C/C(=C\c1ccc(O)cc1O)C2=O
2 = Cc1cccc2c1C/C(=C\c1ccc(O)cc1O)C2=O
3 = CN(C)c1cccc2c1C/C(=C\c1ccc(O)cc1O)C2=O
4 = O=C1/C(=C/c2ccc(O)cc2O)Cc2c1cccc2C(F)(F)F
5 = N#Cc1cccc2c1C/C(=C\c1ccc(O)cc1O)C2=O
# input Reorder the items by IC50, least to greatest. Your answer should be the labels, listed in the requested order.
# output 2, 3, 4, 5, 1
(2: 19 nM, 3: 83 nM, 4: 180 nM, 5: 260 nM, 1: 600 nM)

P = Nc1cccc2c1C/C(=C\c1ccc(O)cc1O)C2=O
Q = CCC(=O)Nc1cccc2c1C/C(=C\c1ccc(O)cc1O)C2=O
# input Consider entries P and Q . Which has the numerically lower IC50? Please indicate the selected item by its label.
# output Q

1 = O=C1/C(=C/c2ccc(O)cc2O)Cc2c(O)cccc21
2 = CNc1cccc2c1C/C(=C\c1ccc(O)cc1O)C2=O
3 = CC(C)C(=O)Nc1cccc2c1C/C(=C\c1ccc(O)cc1O)C2=O
# input Reorder the items by IC50, least to greatest. Your answer should be the labels, listed in the requested order.
# output 2, 3, 1
